- assay.text: AUC (0 to 48 hrs) in Sprague-Dawley rat at 3 mg/kg, iv administered as single dose by LC-MS/MS analysis
- Type: ADME, organism-based
- Set-up: dose 3 mg/kg, time < 48 hr, route intravenous
- condition.set: in vivo
readout.type: AUC(0-t) at 48 h (µM·h)
Reply with just the number (in µM·h).

Form field: reported AUC(0-t) at 48 h of Nc1ccc(C(=O)N[C@H]2CC/C(=C\c3cccc(Oc4ccc(C(F)(F)F)cn4)c3)CC2)cn1 (centres undefined)
152

Consider the compound O=C(N[C@H]1CC/C(=C\c2cccc(Oc3ccc(C(F)(F)F)cn3)c2)CC1)c1cccnc1 (centres undefined) and give its measured AUC(0-t) at 48 h.
47

Give the measured AUC(0-t) at 48 h of Cc1cc(C(=O)N[C@H]2CC/C(=C\c3cccc(Oc4ccc(C(F)(F)F)cn4)c3)CC2)cnc1N (centres undefined) .
109

Record request: AUC(0-t) at 48 h value, item Nc1ncc(C(=O)N[C@H]2CC/C(=C\c3cccc(Oc4ccc(C(F)(F)F)cn4)c3)CC2)cn1 (centres undefined)
155

###

- assay.text: Volume of distribution at steady state in Sprague-Dawley rat at 1 mg/kg, iv administered as single dose by LC-MS/MS analysis
- Assay type: ADME, organism-based
- condition.set: in vivo, read-out: Vdss
readout.type: Vd (L/kg)
Please reply with the bare figure in L/kg and do not write the unit itself.

I am curious: what Vd value has been reported for O=C(NC1CCC(=Cc2cccc(Oc3ccc(C(F)(F)F)cn3)c2)CC1)c1ccc(-n2cccn2)nc1 (racemic) ?
4.6

Quick one: Vd of O=C(NC1CCC(=Cc2cccc(Oc3ccc(C(F)(F)F)cn3)c2)CC1)c1cnc2[nH]ccc2c1 (racemic) ?
1

###

- Test system: CYP3A4
- assay.text: Selectivity ratio of IC50 for CYP3A4 in human liver microsomes using testosterone as substrate to IC50 for rat FFAH expressed in Escherichia coli
- Type: toxicity
- condition.set: probe testosterone, read-out: Ratio IC50
readout.type: selectivity ratio

Give CYP3A4 selectivity ratio for Cc1cc(C(=O)N[C@H]2CC/C(=C\c3cccc(Oc4ccc(C(F)(F)F)cn4)c3)CC2)cnc1N (configuration not stated)
> 5000

Query the reported selectivity ratio for CYP3A4; item: Nc1ncc(C(=O)N[C@H]2CC/C(=C\c3cccc(Oc4ccc(C(F)(F)F)cn4)c3)CC2)cn1 (configuration not stated)
> 5000

###

- assay.text: Volume of distribution at steady state in Sprague-Dawley rat at 3 mg/kg, iv administered as single dose by LC-MS/MS analysis
- Type: ADME, organism-based
- condition.set: in vivo, read-out: Vdss
readout.type: Vd (L/kg)
Report only the number, with the unit L/kg understood.

Reported Vd for Nc1ncc(C(=O)N[C@H]2CC/C(=C\c3cccc(Oc4ccc(C(F)(F)F)cn4)c3)CC2)cn1 (centres undefined) : what is it?
0.8

Consider the molecule shown here: O=C(N[C@H]1CC/C(=C\c2cccc(Oc3ccc(C(F)(F)F)cn3)c2)CC1)c1cccnc1 (centres undefined) What is its recorded Vd?
0.9

# Vd lookup, item Cc1cc(C(=O)N[C@H]2CC/C(=C\c3cccc(Oc4ccc(C(F)(F)F)cn4)c3)CC2)cnc1N (centres undefined)
1.2

Requested field: Vd. Item: Nc1ccc(C(=O)N[C@H]2CC/C(=C\c3cccc(Oc4ccc(C(F)(F)F)cn4)c3)CC2)cn1 (centres undefined)
0.6
